TEST PROTOCOL: Plasma pharmacokinetics of emodepside, single ascending dose (SAD) and food effect study
Assay type: in vivo, human
ASSAY CONTEXT: human, in vivo, po, 5 mg, SAD, single oral 5 mg IRT fasting; plasma; median (range)
ENDPOINT LABEL: Tmax (h)
The figure you give is taken to be in h; do not add the unit.

IN: Endpoint output: Tmax of CC(C)C[C@H]1C(=O)O[C@H](Cc2ccc(N3CCOCC3)cc2)C(=O)N(C)[C@@H](CC(C)C)C(=O)O[C@H](C)C(=O)N(C)[C@@H](CC(C)C)C(=O)O[C@H](Cc2ccc(N3CCOCC3)cc2)C(=O)N(C)[C@@H](CC(C)C)C(=O)O[C@H](C)C(=O)N1C [emodepside] . Value?
OUT: 2

----------
TEST PROTOCOL: Plasma pharmacokinetics of emodepside, multiple ascending dose (MAD) study
Type: in vivo, human
ASSAY CONTEXT: human, plasma, po, 10 mg, 10 mg OD LSF fasting, Day 1, median (range), read-out: t max
ENDPOINT LABEL: Tmax (h)
Write the value in h as a bare number.

IN: Record request: Tmax value, item CC(C)C[C@H]1C(=O)O[C@H](Cc2ccc(N3CCOCC3)cc2)C(=O)N(C)[C@@H](CC(C)C)C(=O)O[C@H](C)C(=O)N(C)[C@@H](CC(C)C)C(=O)O[C@H](Cc2ccc(N3CCOCC3)cc2)C(=O)N(C)[C@@H](CC(C)C)C(=O)O[C@H](C)C(=O)N1C [emodepside]
OUT: 1.25

----------
TEST PROTOCOL: Plasma pharmacokinetics of emodepside, multiple ascending dose (MAD) study
Format: in vivo, human
ASSAY CONTEXT: human, plasma, po, 10 mg, 10 mg OD LSF fasting, Day 10, mean (CV%), read-out: V z /F
Experimental: Emodepside and placebo were supplied as a LSF and a standard immediate‐release (IR) tablet. The LSF was a 0.1% (w/v) solution containing 1 mg emodepside/mL. […] Emodepside plasma concentrations were determined by a validated high performance liquid chromatography–tandem mass spectrometry assay, using a Alltima C18 5 μm 150 mm x 2.1 mm column and an Applied Biosystems API4000 Turbo Ion Spray detector using positive ion mode. […] The lower limit of quantitation for emodepside in plasma was 1 ng/mL. […]
ENDPOINT LABEL: Vd/F
Please state the value followed by its unit.

IN: Which value of Vd/F has been reported for CC(C)C[C@H]1C(=O)O[C@H](Cc2ccc(N3CCOCC3)cc2)C(=O)N(C)[C@@H](CC(C)C)C(=O)O[C@H](C)C(=O)N(C)[C@@H](CC(C)C)C(=O)O[C@H](Cc2ccc(N3CCOCC3)cc2)C(=O)N(C)[C@@H](CC(C)C)C(=O)O[C@H](C)C(=O)N1C [emodepside] in the records?
OUT: 1860 L

----------
TEST PROTOCOL: Plasma pharmacokinetics of emodepside, single ascending dose (SAD) and food effect study
Type: in vivo, human
ASSAY CONTEXT: human, in vivo, po, 1 mg, SAD, single oral 1 mg LSF fasting; plasma; median (range)
ENDPOINT LABEL: Tmax (h)
Write the number in h without appending the unit.

IN: What measured Tmax goes with CC(C)C[C@H]1C(=O)O[C@H](Cc2ccc(N3CCOCC3)cc2)C(=O)N(C)[C@@H](CC(C)C)C(=O)O[C@H](C)C(=O)N(C)[C@@H](CC(C)C)C(=O)O[C@H](Cc2ccc(N3CCOCC3)cc2)C(=O)N(C)[C@@H](CC(C)C)C(=O)O[C@H](C)C(=O)N1C [emodepside] ?
OUT: 1

----------
TEST PROTOCOL: Plasma pharmacokinetics of emodepside, single ascending dose (SAD) and food effect study
Assay type: in vivo, human
ASSAY CONTEXT: human, in vivo, po, 1 mg, SAD, single oral 1 mg LSF fasting; plasma, HPLC-MS/MS; mean
ENDPOINT LABEL: AUC 0–24 h
Form field: result (number plus unit)

IN: Which AUC 0–24 h value belongs to CC(C)C[C@H]1C(=O)O[C@H](Cc2ccc(N3CCOCC3)cc2)C(=O)N(C)[C@@H](CC(C)C)C(=O)O[C@H](C)C(=O)N(C)[C@@H](CC(C)C)C(=O)O[C@H](Cc2ccc(N3CCOCC3)cc2)C(=O)N(C)[C@@H](CC(C)C)C(=O)O[C@H](C)C(=O)N1C [emodepside] ?
OUT: 100 ng·h/mL

----------
TEST PROTOCOL: Plasma pharmacokinetics of emodepside, single ascending dose (SAD) and food effect study
Format: in vivo, human
ASSAY CONTEXT: human, in vivo, po, 2.5 mg, SAD, single oral 2.5 mg LSF fasting; plasma, HPLC-MS/MS; mean
Experimental: Emodepside and placebo were supplied as a LSF and a standard immediate‐release (IR) tablet. The LSF was a 0.1% (w/v) solution containing 1 mg emodepside/mL. […] Emodepside plasma concentrations were determined by a validated high performance liquid chromatography–tandem mass spectrometry assay, using a Alltima C18 5 μm 150 mm x 2.1 mm column and an Applied Biosystems API4000 Turbo Ion Spray detector using positive ion mode. […] The lower limit of quantitation for emodepside in plasma was 1 ng/mL. […]
ENDPOINT LABEL: AUC(0-t) (ng·h/mL)
Reply numerically in ng·h/mL, unit not repeated.

IN: For the compound CC(C)C[C@H]1C(=O)O[C@H](Cc2ccc(N3CCOCC3)cc2)C(=O)N(C)[C@@H](CC(C)C)C(=O)O[C@H](C)C(=O)N(C)[C@@H](CC(C)C)C(=O)O[C@H](Cc2ccc(N3CCOCC3)cc2)C(=O)N(C)[C@@H](CC(C)C)C(=O)O[C@H](C)C(=O)N1C [emodepside] , what AUC(0-t) is on record?
OUT: 845

----------
TEST PROTOCOL: Plasma pharmacokinetics of emodepside, single ascending dose (SAD) and food effect study
Type: in vivo, human
ASSAY CONTEXT: human, in vivo, po, 20 mg, SAD, single oral 20 mg LSF fasting; plasma; ln2/λz; mean; read-out: Terminal t ½ (converted)
ENDPOINT LABEL: half-life (days)
API: value field is a number in days; no unit string.

IN: # get_value(readout='half-life', item= CC(C)C[C@H]1C(=O)O[C@H](Cc2ccc(N3CCOCC3)cc2)C(=O)N(C)[C@@H](CC(C)C)C(=O)O[C@H](C)C(=O)N(C)[C@@H](CC(C)C)C(=O)O[C@H](Cc2ccc(N3CCOCC3)cc2)C(=O)N(C)[C@@H](CC(C)C)C(=O)O[C@H](C)C(=O)N1C [emodepside] )
OUT: 24.6

----------
TEST PROTOCOL: Plasma pharmacokinetics of emodepside, single ascending dose (SAD) and food effect study
Assay type: in vivo, human
ASSAY CONTEXT: human, in vivo, po, 20 mg, SAD, single oral 20 mg LSF fasting; plasma, HPLC-MS/MS; mean
ENDPOINT LABEL: Cmax (ng/mL)
Answer with a number only, understood to be in ng/mL.

IN: Name the reported Cmax value associated with the molecule CC(C)C[C@H]1C(=O)O[C@H](Cc2ccc(N3CCOCC3)cc2)C(=O)N(C)[C@@H](CC(C)C)C(=O)O[C@H](C)C(=O)N(C)[C@@H](CC(C)C)C(=O)O[C@H](Cc2ccc(N3CCOCC3)cc2)C(=O)N(C)[C@@H](CC(C)C)C(=O)O[C@H](C)C(=O)N1C [emodepside]
OUT: 306

----------
TEST PROTOCOL: Plasma pharmacokinetics of emodepside, multiple ascending dose (MAD) study
Type: in vivo, human
ASSAY CONTEXT: human, plasma, po, 10 mg, 10 mg OD LSF fasting, Day 10, mean (CV%), read-out: CL ss /F (converted)
ENDPOINT LABEL: CL/F
Please answer using the number first and the unit second.

IN: Which CL/F reading was recorded for the compound CC(C)C[C@H]1C(=O)O[C@H](Cc2ccc(N3CCOCC3)cc2)C(=O)N(C)[C@@H](CC(C)C)C(=O)O[C@H](C)C(=O)N(C)[C@@H](CC(C)C)C(=O)O[C@H](Cc2ccc(N3CCOCC3)cc2)C(=O)N(C)[C@@H](CC(C)C)C(=O)O[C@H](C)C(=O)N1C [emodepside] ?
OUT: 47.8 mL/min

----------
TEST PROTOCOL: Plasma pharmacokinetics of emodepside, single ascending dose (SAD) and food effect study
Type: in vivo, human
ASSAY CONTEXT: human, in vivo, po, 20 mg, SAD, single oral 20 mg IRT fasting; plasma; ln2/λz; mean; read-out: Terminal t ½ (converted)
ENDPOINT LABEL: half-life (days)
Please give a number only; it is taken to be in days.

IN: Please give the measured half-life for this compound: CC(C)C[C@H]1C(=O)O[C@H](Cc2ccc(N3CCOCC3)cc2)C(=O)N(C)[C@@H](CC(C)C)C(=O)O[C@H](C)C(=O)N(C)[C@@H](CC(C)C)C(=O)O[C@H](Cc2ccc(N3CCOCC3)cc2)C(=O)N(C)[C@@H](CC(C)C)C(=O)O[C@H](C)C(=O)N1C [emodepside]
OUT: 14.5

The measured values listed here are drawn from paper PMC8518114.
